Data provenance: PubChem BioAssay (NCI)

# Test system: MDA-MB-468 breast
# protocolDetails: NCI-60 one-dose screen, 48 h (100 = growth as untreated, 0 = no growth, -100 = all killed)
# experimentalSetup: 10 µM unless noted
This is part of a sample that, as a whole, favours compounds with a hit. Of some 83,000 tested, about 20% had one in any assay. Calls of active or inactive are those of the source. Rule for the calls: active = growth percent below 10; inactive = the rest.
Listed compounds paired with reported growth

{"columns": ["compound", "growth"],
 "data": [
  ["Nc1n[nH]c2cccc(C#Cc3cccc(C(=O)Nc4ccc(Cl)c(C(F)(F)F)c4)c3)c12", "74.4% (inactive)"],
  ["CCOC(=O)c1c(Nc2ccccc2)nn2c(N)c(C#N)c(-c3ccc(F)cc3)nc12", "82.5% (inactive)"],
  ["CCCCCCCCCCN=C(N)N=C(N)N", "-12.9% (active)"],
  ["Clc1ccc2oc3c(NCCCn4ccnc4)c4ccccc4nc3c2c1", "51.6% (inactive)"],
  ["COc1ccc2oc(=O)cc(Cn3cc(Cn4cnc5c4c(=O)n(C)c(=O)n5C)nn3)c2c1", "101% (inactive)"],
  ["CCCC(=O)NC(c1cccc(N(C)C)c1)c1cc(C)c2cccnc2c1O (stereo unspecified)", "24.8% (inactive)"],
  ["COc1ccc2c(C3=C(c4c[nH]c5ccccc45)C(=O)N(O)C3=O)coc2c1", "88.6% (inactive)"],
  ["O=c1c2cccc3c(NC4CCCCC4)ccc(c32)c2nc3ccccc3n12", "-4.69% (active)"],
  ["Cc1c(Cl)cc(Cl)c(N)c1Cl", "111% (inactive)"],
  ["CCCCCCCCc1cc(Cl)c(O)c(Cl)c1", "119% (inactive)"],
  ["CCOC(=O)c1cn2ncnc(Oc3ccc(NC(=O)NCCN(CC)CC)c(Cl)c3)c2c1C", "52.8% (inactive)"]
]}
